Provide the reported cytotoxicity at 10 µM of each item.
Assay: Toxicity liver stage against HepG2, at 10uM
Assay type: cell-based
Design: test concentration 10 uM, cell line HepG2-A16-CD81EGFP
Conditions: human, HepG2-A16-CD81EGFP cells; read-out: INHIBITION
Supply the numeric figure in %, leaving out any unit text.

[in] Param item = COc1ccc(OC2CCN(C(=O)CCc3n[nH]c(N)n3)CC2)cc1 ; retrieve measured cytotoxicity at 10 µM.
[out] 1.43

[in] Now give it for Nc1cc(-c2cccc3ccnn23)ccn1 too.
[out] 0.858

[in] Now give it for Cc1nc(C2CCCN2C(=O)c2ccc(=O)n(C)n2)no1 (configuration not stated) too.
[out] -2.64

[in] Now give it for CC(=O)N1C[C@H]2CN(CC3CC3)C(=O)[C@H]2C1 too.
[out] 6.32

[in] Now give it for CCCC(=O)Nc1ccc2c(c1)C1(CCOCC1)CN2CCOC too.
[out] -104

[in] Now give it for CCc1noc(CN(CC)C(=O)CC2C(=O)NCCN2CC=C(C)C)n1 (configuration not stated) too.
[out] 2.24

[in] Now give it for COCCS(=O)(=O)Cc1nnnn1-c1ccccc1 too.
[out] -9.4

[in] Now give it for N#Cc1cccc(CN(CCO)Cc2ccsc2)c1 too.
[out] 19.6

[in] Now give it for CCN1CCN(Cc2c(C3CCCC3)[nH]c3ncccc23)CC1 too.
[out] 13.1

[in] Now give it for Cc1cc(C(=O)NCc2ccnc(OCC(F)(F)F)c2)no1 too.
[out] -7.98

[in] Now give it for CN(C)C(=O)CN1CCOCC2(C1)CN(c1ncccn1)CCO2 (configuration not stated) too.
[out] 1.71

[in] Now give it for CC(=O)N1CCCN(C(=O)c2oc(Br)cc2C)CC1 too.
[out] -13.6
